# TESTED_ON: human galectin-3 (Gal-3) (Homo sapiens, UniProt P17931)
# Construct: made in house; host or cells: E. coli Rosetta (DE3) pLysS
# Sequence (P17931 whole entry): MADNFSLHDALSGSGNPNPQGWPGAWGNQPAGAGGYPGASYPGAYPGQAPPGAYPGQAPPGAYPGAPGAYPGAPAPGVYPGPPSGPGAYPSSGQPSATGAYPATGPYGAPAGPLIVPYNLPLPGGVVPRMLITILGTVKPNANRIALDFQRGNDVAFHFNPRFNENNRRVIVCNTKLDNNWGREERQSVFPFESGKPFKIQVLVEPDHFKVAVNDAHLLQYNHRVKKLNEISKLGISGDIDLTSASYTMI
# PROTOCOL_DETAILS: Competitive ELISA: inhibition of His-tagged Gal-3 binding to immobilized asialofetuin (ASF)
# TEST_SETTINGS: read-out: IC50 Glycan
# Description: To assess the inhibitory potential of glycans 1–8 and the respective neo-glycoproteins 9–16 towards Gal-3, their capacity to inhibit the binding of Gal-3 to immobilized asialofetuin (ASF) was determined by competitive ELISA inhibition analyses (Figure 2b). […] The respective inhibition constants (IC50) were calculated from the non-linear regression of the sigmoidal inhibition curves and they are listed in Table 1. […]
pIC50: −log10 of the molar value.
METRIC: pIC50

| COMPOUND | METRIC | RECORDED_VALUE |
| --- | --- | --- |
| CC(=O)N[C@@H]1[C@@H](O)[C@H](O[C@@H]2O[C@H](CO)[C@H](O)[C@H](O)[C@H]2O)[C@@H](CO)O[C@H]1NC(=S)NCCNC(=O)OC(C)(C)C [glycan 2] | pIC50 | 4.44 |
| CC(=O)N[C@@H]1[C@@H](O)[C@H](O[C@@H]2O[C@H](CO)[C@H](O)[C@H](O)[C@H]2NC(C)=O)[C@@H](CO)O[C@H]1NC(=S)NCCNC(=O)OC(C)(C)C [glycan 1, LacdiNAc] | pIC50 | 4.38 |
